system: IRF pathway in THP1-Dual™ cells, THP-1 (HAQ); test: Reporter gene expression assay in THP-1 cells (THP1-Dual, IRF pathway Lucia luciferase reporter, 2′,3′-cGAMP stimulation); type: cell-based, human; details: Homo sapiens; THP1-Dual cells preincubated with compound 10 minutes, stimulation with 5 μM 2′,3′-cGAMP for 20 hr, QUANTI-Luc readout of the supernatant; read-out: THP-1 (HAQ) Activity (IC50 value range)
pIC50: −log10 of the molar value.
Entries and their pIC50 values follow.

Solved cases (3 shown):
O=C1Cc2ccc(-c3ccc4[nH]cc(NC(=O)Nc5ccc6c(c5)N(Cc5ccccc5)C(=O)CS6)c4c3)cc2N1 [Example 62] | > 6.00
O=C(Nc1ccc2c(c1)N(Cc1c(F)cccc1Cl)C(=O)CS2)Nc1c[nH]c2ccccc12 [Example 11] | > 6.00
C[C@H]1c2ccc(NC(=O)Nc3c[nH]c4ccccc34)cc2N(Cc2c(F)ccc(O)c2Cl)C(=O)N1C [Example 108] | 5.00 to 6.00

Now take the following compound into account.
Hi! What's the reported pIC50 for NC(=O)c1cccc(CN2C(=O)CSc3ccc(NC(=O)Nc4c[nH]c5ccccc45)cc32)c1 [Example 21] on IRF pathway in THP1-Dual™ cells, THP-1 (HAQ)?
5.00 to 6.00
